We begin with a simple list: items and their reported glycan array binding signal (z-score).
target: Neu5Ac(a2-3)Gal(b1-4)GlcNAc(b1-6)GalNAc; experiment: glycan array binding signal (z-score within array); higher = stronger binding; conditions: glycan notation: IUPAC condensed, linker removed
Only a selection was taken, and the strongest signals are over-represented in it overall.
value.kind: glycan array binding signal (z-score)

DC-ASGPR L+GEE (Homo sapiens) (protein) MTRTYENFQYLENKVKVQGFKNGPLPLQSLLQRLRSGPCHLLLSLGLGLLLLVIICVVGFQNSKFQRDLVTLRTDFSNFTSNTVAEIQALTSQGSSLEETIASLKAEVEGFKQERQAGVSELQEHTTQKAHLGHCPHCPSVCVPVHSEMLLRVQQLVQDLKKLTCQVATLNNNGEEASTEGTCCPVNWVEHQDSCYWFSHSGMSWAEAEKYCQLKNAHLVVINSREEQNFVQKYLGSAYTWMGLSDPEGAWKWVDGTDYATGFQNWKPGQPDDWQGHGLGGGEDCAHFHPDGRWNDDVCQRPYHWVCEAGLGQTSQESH ... 3
EULS2 M4 (Oryza sativa) (protein) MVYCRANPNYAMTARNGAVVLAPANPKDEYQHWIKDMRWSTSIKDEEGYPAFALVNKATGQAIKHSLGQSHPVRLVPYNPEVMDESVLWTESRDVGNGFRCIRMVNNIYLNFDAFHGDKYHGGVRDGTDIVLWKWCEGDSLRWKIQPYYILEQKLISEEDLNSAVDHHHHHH ... -0.226
